# normalised response annotations
- Test system: MFM-223
- test_protocol: normalised response (% of control), CellTox Green; higher = less cell death (100 = DMSO, 0 = benzethonium chloride kill control)
- condition: incubation time: 72 h

Worked examples follow.
CC/C(=C(\c1ccccc1)c1ccc(OCCN(C)C)cc1)c1ccccc1 [Tamoxifen] (1000 nM); 74.9%
Cn1nnc2c(C(N)=O)ncn2c1=O [Temozolomide] (1000 nM); 52%
CCc1cnn2c(NCc3ccc[n+]([O-])c3)cc(N3CCCC[C@H]3CCO)nc12 [Dinaciclib] (100 nM); 30.3%

(Q) State its normalised response on MFM-223: CN1CCc2c(c3ccccc3n2Cc2ccc(C(=O)NO)cc2)C1 [Tubastatin A] (1000 nM)
(A) 101%

(Q) And then C[C@]12C=CC(=O)C=C1CC[C@@H]1[C@@H]2C(=O)C[C@@]2(C)[C@H]1CC[C@]2(O)C(=O)CO [Prednisone] (10000 nM) , what is it?
(A) 100%

(Q) And then CO[C@H]1C[C@@H]2CC[C@@H](C)[C@@](O)(O2)C(=O)C(=O)N2CCCC[C@H]2C(=O)O[C@H]([C@H](C)C[C@@H]2CC[C@@H](O)[C@H](OC)C2)CC(=O)[C@H](C)/C=C(\C)[C@@H](O)[C@@H](OC)C(=O)[C@H](C)C[C@H](C)/C=C/C=C/C=C/1C [Sirolimus] (1 nM) , what is it?
(A) 92.6%

Measured values drawn from the supplement of paper PMC4862054 for this set.
